The origin of these recorded values is patent US20210054097A1.

tested_on: T1, FX activation peptide 12-mer LDFNQTQPERGD (human)
T1 peptide: LDFNQTQPERGD-biotin
method_summary: peptide ELISA
Ends that are not written are not given here.
measurement_kind: ELISA signal relative to background
Please reply with the number alone, leaving off any unit.

>>> quantitative_result("Nb 730C03 (VHH, monovalent Nanobody; also called Nb 730003; not shown: C-terminal FLAG3 and HIS6 tag) VHH: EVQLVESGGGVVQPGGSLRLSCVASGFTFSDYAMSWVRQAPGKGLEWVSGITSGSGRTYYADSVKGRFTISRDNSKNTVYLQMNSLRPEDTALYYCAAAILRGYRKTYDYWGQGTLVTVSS")
1.14
>>> quantitative_result("Nb 701C06 (VHH, monovalent Nanobody; not shown: C-terminal FLAG3 and HIS6 tag) VHH: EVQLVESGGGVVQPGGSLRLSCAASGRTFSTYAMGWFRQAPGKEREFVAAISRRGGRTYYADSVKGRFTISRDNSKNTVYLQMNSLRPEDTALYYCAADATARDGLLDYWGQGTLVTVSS")
0.93
>>> quantitative_result("Nb 501A02 (VHH, monovalent control Nanobody; also called control Nanobody; not shown: C-terminal FLAG3 and HIS6 tag) VHH: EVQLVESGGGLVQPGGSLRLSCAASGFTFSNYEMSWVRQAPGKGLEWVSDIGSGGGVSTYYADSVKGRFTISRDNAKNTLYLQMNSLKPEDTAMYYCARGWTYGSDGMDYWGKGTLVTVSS")
0.74
>>> quantitative_result("Nb 701B09 (VHH, monovalent Nanobody; also called Nb 701609; not shown: C-terminal FLAG3 and HIS6 tag) VHH: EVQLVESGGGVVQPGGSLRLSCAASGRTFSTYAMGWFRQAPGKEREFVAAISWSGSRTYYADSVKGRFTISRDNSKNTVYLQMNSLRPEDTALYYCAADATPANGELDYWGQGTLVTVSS")
0.82

Problem: // lookup ELISA signal relative to background for Nb 729C08 (VHH, monovalent Nanobody; also called Nb 729008; not shown: C-terminal FLAG3 and HIS6 tag) VHH: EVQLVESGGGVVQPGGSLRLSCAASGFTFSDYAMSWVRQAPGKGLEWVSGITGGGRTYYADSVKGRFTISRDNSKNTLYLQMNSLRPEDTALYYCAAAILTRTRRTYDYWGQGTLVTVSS
Result: 1.12
